targetOfAssay: wild type PKR (Homo sapiens)
Sequence (P30613 whole entry): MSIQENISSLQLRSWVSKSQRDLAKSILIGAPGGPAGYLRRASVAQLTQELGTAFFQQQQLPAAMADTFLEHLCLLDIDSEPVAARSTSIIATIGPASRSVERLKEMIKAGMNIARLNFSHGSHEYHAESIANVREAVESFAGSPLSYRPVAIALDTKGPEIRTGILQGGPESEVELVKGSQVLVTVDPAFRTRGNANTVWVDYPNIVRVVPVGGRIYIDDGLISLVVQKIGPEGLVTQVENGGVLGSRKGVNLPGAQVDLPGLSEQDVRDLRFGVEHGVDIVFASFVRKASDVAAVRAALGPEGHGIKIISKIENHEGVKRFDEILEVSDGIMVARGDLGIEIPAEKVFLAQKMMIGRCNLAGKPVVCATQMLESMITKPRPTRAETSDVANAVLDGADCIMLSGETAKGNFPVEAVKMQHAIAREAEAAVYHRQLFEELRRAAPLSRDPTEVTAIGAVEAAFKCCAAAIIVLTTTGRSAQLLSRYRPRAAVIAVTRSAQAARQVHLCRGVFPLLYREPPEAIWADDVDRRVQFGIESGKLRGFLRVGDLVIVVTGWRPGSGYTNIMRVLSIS
assayText: PKR (wild type) enzyme AC50 assay, LDH/NADH-coupled, absorbance at 340 nm
Format: biochemical
runConditions: Table 2; enzyme assay; read-out: PKR WT AC50
readout: AC50

[
  {
    "smilesRepr": "Cn1c2nc(Cc3cccc4cn[nH]c34)sc2c2cnn(Cc3cccc4[nH]ncc34)c(=O)c21",
    "AC50": "< 0.3 µM"
  },
  {
    "smilesRepr": "CSc1nc2c(s1)c1cnn(Cc3ccc(S(N)(=O)=O)cc3)c(=O)c1n2C",
    "AC50": "> 0.8 µM"
  },
  {
    "smilesRepr": "COc1cccc(Cn2ncc3c4sc(SC)nc4n(C)c3c2=O)c1",
    "AC50": "< 0.3 µM"
  },
  {
    "smilesRepr": "Cn1c2nc(Cc3cnoc3)sc2c2cnn(Cc3cccc4[nH]ncc34)c(=O)c21",
    "AC50": "> 0.8 µM"
  }
]

Ask | Kindly state the measured AC50 obtained for "COc1ccc(Cn2ncc3c4sc(Cc5cc[nH]n5)nc4n(C)c3c2=O)cc1" with wild type PKR (Homo sapiens).
Reply | < 0.3 µM

Ask | Next up: "COc1cccc(Cn2ncc3c4sc(Cc5ccc(Cl)cc5)nc4n(C)c3c2=O)c1"
Reply | < 0.3 µM

Ask | Now consider "CC(=O)NCc1nc2c(s1)c1cnn(Cc3cccc4[nH]ncc34)c(=O)c1n2C" .
Reply | < 0.3 µM

Ask | Another compound to check: "Cc1nc2c(s1)c1cnn(Cc3cccc(C(=O)O)c3)c(=O)c1n2C"
Reply | > 0.8 µM
